- Test system: HCT-116 colon
- experiment: NCI-60 one-dose screen, 48 h
- assaySetup: 10 µM unless noted
Compounds without any hit were thinned out: in the full panel of roughly 83,000, 20% have a hit. Calls of active or inactive are those of the source. Rule for the calls: active = growth percent below 10; inactive = the rest.
Classes used: active, inactive

>  <molecule>
O=C(NNc1nc2cc(F)ccc2n2cncc12)c1cnccn1

>  <discreteLabel>
inactive

$$$$
>  <molecule>
CCOC(=O)/C(F)=C/C1CC1C1CCCCC1 (stereo not given)

>  <discreteLabel>
inactive

$$$$
>  <molecule>
CNC(=O)c1cc(Oc2ccc3nc(NC(=O)c4cc(C)cc(C)c4)sc3c2)ccn1

>  <discreteLabel>
inactive

$$$$
>  <molecule>
CC(C)C(=O)Nc1ccc(-c2nc(-c3cccc(O)c3)c(-c3ccnc(Br)c3)[nH]2)cc1

>  <discreteLabel>
inactive

$$$$
>  <molecule>
COc1ccc(C2CC(c3ccc(Nc4nc(NCCO)nc(Nc5ccc(Cl)cc5)n4)cc3)=Nc3c(N)nc(N)nc3N2)cc1 (stereo not given)

>  <discreteLabel>
active

$$$$
